Test system: 935938-334-R-J1-PDC complex spheroid viability;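 further: spheroids exposed to drugs for seven days before viability read; 100% = DMSO vehicle control wells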
ASSAY_PROTOCOL: Anticancer human tumor 935938-334-R-J1-PDC patient-derived small intestine adenocarcinoma cell line growth inhibition [POLQ]
SETUP_CONDITIONS: second compound 10 µM; first compound 0.0316 µM; hits give low values
Experimental: Multicellular complex tumor spheroid response to Polymerase (POL) inhibitors (novobiocin, ART-558, RP6685) in combination with a variety of drugs and investigational agents in selected tumor cell lines The POL inhibitors (novobiocin, ART-558, and RP6685) were evaluated both individually and in combination with standard of care and investigational anticancer small molecules within a complex spheroid model of solid tumors. . […]
molecules and their reported viability, T/C
OBSERVATION_TYPE: viability, T/C (%)

Nc1ccn(C2OC(CO)C(O)C2(F)F)c(=O)n1 (stereo not given) + Cc1cccc(N(C)C(=O)C2C(O)CCN2c2nc(C)cc(C(F)(F)F)c2C#N)c1    39.2
COc1cccc2c1C(=O)c1c(O)c3c(c(O)c1C2=O)CC(O)(C(=O)CO)CC3OC1CC(N)C(O)C(C)O1 (stereo not given) + Nc1ccc(C#CCN(C(=O)Cc2ncc(C(F)(F)F)cc2C(F)(F)F)c2ccc(F)cc2)nn1    68.1
O=C(Nc1ccc(O)c(NS(=O)(=O)c2ccc(F)cc2)c1)c1ccc(-c2ccccc2)cc1 + Cc1cccc(N(C)C(=O)C2C(O)CCN2c2nc(C)cc(C(F)(F)F)c2C#N)c1    92.4
COc1cccc(OCCCN)c1-c1cc(Nc2cnc(C#N)cn2)n[nH]1 + Cc1cccc(N(C)C(=O)C2C(O)CCN2c2nc(C)cc(C(F)(F)F)c2C#N)c1    57.9
C=CCn1c(=O)c2cnc(Nc3ccc(N4CCN(C)CC4)cc3)nc2n1-c1cccc(C(C)(C)O)n1 + COC1C(OC(N)=O)C(O)C(Oc2ccc3c(O)c(NC(=O)c4ccc(O)c(CC=C(C)C)c4)c(=O)oc3c2C)OC1(C)C    120

Each recorded value in this set is attributed to PubChem BioAssay AID1963829.
